Would you mind telling me the reported Dmax of each entry?
- target.or.system: SMARCA2 (Homo sapiens)
- Sequence (P51531 whole entry): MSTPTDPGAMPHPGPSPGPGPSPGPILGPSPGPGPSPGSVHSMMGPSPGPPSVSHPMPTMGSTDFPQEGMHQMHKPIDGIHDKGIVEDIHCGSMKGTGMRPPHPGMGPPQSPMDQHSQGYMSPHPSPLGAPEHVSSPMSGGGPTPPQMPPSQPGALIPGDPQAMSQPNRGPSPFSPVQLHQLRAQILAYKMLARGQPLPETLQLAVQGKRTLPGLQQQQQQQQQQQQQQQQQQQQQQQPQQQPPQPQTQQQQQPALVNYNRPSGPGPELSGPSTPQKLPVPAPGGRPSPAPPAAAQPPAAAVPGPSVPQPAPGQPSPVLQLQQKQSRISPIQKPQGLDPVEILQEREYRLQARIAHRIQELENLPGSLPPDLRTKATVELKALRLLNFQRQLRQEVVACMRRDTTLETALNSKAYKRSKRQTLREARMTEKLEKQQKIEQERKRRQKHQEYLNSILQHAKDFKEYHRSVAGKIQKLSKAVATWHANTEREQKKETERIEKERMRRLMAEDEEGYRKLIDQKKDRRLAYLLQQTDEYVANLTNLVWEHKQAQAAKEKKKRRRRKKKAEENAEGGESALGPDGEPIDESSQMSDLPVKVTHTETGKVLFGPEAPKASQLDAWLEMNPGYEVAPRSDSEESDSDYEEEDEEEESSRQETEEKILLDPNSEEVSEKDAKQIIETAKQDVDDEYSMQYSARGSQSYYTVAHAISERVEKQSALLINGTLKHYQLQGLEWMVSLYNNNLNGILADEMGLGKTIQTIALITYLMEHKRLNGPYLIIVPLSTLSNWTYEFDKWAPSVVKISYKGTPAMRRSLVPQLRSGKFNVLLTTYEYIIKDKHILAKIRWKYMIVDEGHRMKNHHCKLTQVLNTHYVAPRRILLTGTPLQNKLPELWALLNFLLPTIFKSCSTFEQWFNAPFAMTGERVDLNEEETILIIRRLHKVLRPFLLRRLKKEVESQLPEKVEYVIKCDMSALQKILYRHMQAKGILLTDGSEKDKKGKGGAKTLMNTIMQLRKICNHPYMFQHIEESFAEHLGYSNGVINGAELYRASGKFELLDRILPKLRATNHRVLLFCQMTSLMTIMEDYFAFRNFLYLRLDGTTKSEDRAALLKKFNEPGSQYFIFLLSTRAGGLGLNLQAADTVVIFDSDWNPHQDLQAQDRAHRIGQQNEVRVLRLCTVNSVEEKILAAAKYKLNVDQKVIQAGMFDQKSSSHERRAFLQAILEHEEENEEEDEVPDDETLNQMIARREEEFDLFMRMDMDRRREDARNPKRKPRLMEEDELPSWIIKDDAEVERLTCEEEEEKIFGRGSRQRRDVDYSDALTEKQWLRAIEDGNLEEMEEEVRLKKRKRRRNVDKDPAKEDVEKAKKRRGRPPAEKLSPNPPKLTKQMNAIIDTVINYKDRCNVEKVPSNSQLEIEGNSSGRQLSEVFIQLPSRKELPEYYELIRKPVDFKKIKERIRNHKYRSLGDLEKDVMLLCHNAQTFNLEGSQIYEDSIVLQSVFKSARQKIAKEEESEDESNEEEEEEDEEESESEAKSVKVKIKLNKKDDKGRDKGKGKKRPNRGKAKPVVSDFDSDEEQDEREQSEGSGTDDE
- protocol.notes: HiBit assay in engineered HT1080 CRISPR knock-in cell, 6 hrs (B series), SMARCA2
- Assay type: cell-based
- settings: HT-1080, HT1080 CRISPR knock-in cells, 6 hrs incubation; read-out: SMARC A2 HT1080 HiBit Dmax (%)
- Protocol: The HiBit assay was performed using engineered HT1080 CRISPR knock-in cell utilizing the Nano-Glo HiBiT Lytic Detection System from Promega, Cat #N3040. Compounds were transferred, 25 nL DMSO or test compounds (final DMSO @ 0.1%) to intermediate plates (Corning3570) using ECHO550. […] After briefly centrifugation (2000 rpm 1 mins), plate was read on Envision (Ultrasensitive luminescence model).

For every item below, please supply its Dmax.
1. Cc1ncsc1-c1ccc([C@H](C)NC(=O)[C@@H]2C[C@@H](O)CN2C(=O)[C@@H](c2cc(OCCn3cc(-c4ccc5c(c4)C(C)(C)c4nc(=O)c6c(Cl)cccc6n4-5)cn3)no2)C(C)C)cc1
2. Cc1ncsc1-c1ccc([C@H](C)NC(=O)[C@@H]2C[C@@H](O)CN2C(=O)[C@@H](NC(=O)C2CCC(CN3CCC(c4ccc5c(c4)C(C)(C(F)(F)F)c4nc(=O)c6c(Cl)cccc6n4-5)CC3)CC2)C(C)(C)C)cc1 (stereo partly drawn)
3. Cc1ncsc1-c1ccc([C@H](C)NC(=O)[C@@H]2C[C@@H](O)CN2C(=O)[C@@H](c2cc(OCCN3CCC(c4ccc5c(c4)C(C)(C)c4nc(=O)c6c(Cl)cccc6n4-5)CC3)no2)C(C)C)cc1
4. C[C@H](NC(=O)[C@@H]1C[C@@H](O)CN1C(=O)[C@@H](NC(=O)[C@H]1CC[C@H](C(=O)N2CCC(c3ccc4c(c3)-n3c(nc(=O)c5c(Cl)cccc53)C4(C)C)CC2)CC1)C(C)(C)C)c1ccc(-c2ncnn2C)cc1
5. Cc1ncsc1-c1ccc([C@H](C)NC(=O)[C@@H]2C[C@@H](O)CN2C(=O)[C@@H](c2cc(OC3CCC(Cn4cc(-c5ccc6c(c5)-n5c(nc(=O)c7c(Cl)cccc75)C6(C)C)cn4)CC3)no2)C(C)C)cc1 (stereo partly drawn)

OUT:
1. 70 to 90%
2. 70 to 90%
3. > 90%
4. < 50%
5. 50 to 69%

For every item below, please supply its Dmax.
1. Cc1ncsc1-c1ccc([C@H](C)NC(=O)[C@@H]2C[C@@H](O)CN2C(=O)[C@@H](c2cc(OC3CCC(N4CCC(c5ccc6c(c5)-n5c(nc(=O)c7c(Cl)cccc75)C6(C)C)CC4)CC3)no2)C(C)C)cc1 (stereo partly drawn)
2. Cc1ncsc1-c1ccc([C@H](C)NC(=O)[C@@H]2C[C@@H](O)CN2C(=O)[C@H](C(C)C)n2cc(CCN3CCC(c4ccc5c(c4)C(C)(C)c4nc(=O)c6c(Cl)cccc6n4-5)CC3)nn2)cc1
3. Cc1ncsc1-c1ccc([C@H](C)NC(=O)[C@@H]2C[C@@H](O)CN2C(=O)[C@@H](NC(=O)CCN2CCC(c3ccc4c(c3)-n3c(nc(=O)c5c(Cl)cccc53)C4(C)C)CC2)C(C)(C)C)cc1
4. Cc1ncsc1-c1ccc([C@H](C)NC(=O)[C@@H]2C[C@@H](O)CN2C(=O)[C@H](C(C)C)n2cc(CC3CCC(N4CCC(c5cccc6c5C(C)(C)c5nc(=O)c7c(Cl)cccc7n5-6)CC4)CC3)nn2)cc1 (stereo partly drawn)

OUT:
1. > 90%
2. > 90%
3. 50 to 69%
4. > 90%

###

Would you mind telling me the reported Dmax of each entry?
- target.or.system: SMARCA2 (Homo sapiens)
- protocol.notes: HiBiT assay for protein degradation, Hela SMARCA2-HiBiT cells (A series);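 note: 24 h compound treatment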
- Type: cell-based
- Set-up: Hela cells were genetically modified via CRISPR/Cas9 to fuse HiBiT to the carboxy terminus of SMARCA2; host or cells: HeLa (CRISPR/Cas9 HiBiT knock-in)
- settings: Hela SMARCA2-HiBiT cells, 24 hours treatment; read-out: SMARC A2 Hela HiBit Dmax (%)
- Procedure: Hela cells were genetically modified via CRISPR/Cas9 to fuse HiBiT to the carboxy terminus of SMARCA2 (Promega CS302365) or SMARCA4 (Promega CS3023225). Cells were cultured in DMEM containing 10% FBS and 1% (Vol:Vol) penicillin-streptomycin. […] At the end of experiment, levels of SMARCA2 or SMARCA4 expression were assessed with Nano-Glo® HiBiT Lytic Detection Assay (Promega N3050). IC50 was obtained using the GraphPad Prism data analysis software.

Answered examples (3):
Cc1ncsc1-c1ccc([C@H](CN2CC(C(=O)O)C2)NC(=O)[C@@H]2C[C@@H](O)CN2C(=O)[C@@H](n2cc([C@H]3CC[C@H](CN4CCC(c5ccc6c(c5)-n5c(nc(=O)c7c(Cl)cccc75)C65CCCCC5)CC4)CC3)nn2)C(C)(C)C)cc1 [Compound A157]    70 to 90%
CC(C)(C)[C@@H](C(=O)N1C[C@H](O)C[C@H]1C(=O)N[C@@H](CN1CCOCC1)c1ccc(-c2ccncc2)cc1)n1cc([C@H]2CC[C@H](CN3CCC(c4ccc5c(c4)-n4c(nc(=O)c6c(Cl)cccc64)C54CCCCC4)CC3)CC2)nn1 [Compound A172]    > 90%
Cc1ncsc1-c1ccc([C@H](CN2CCOCC2)NC(=O)[C@@H]2C[C@@H](O)CN2C(=O)[C@@H](n2cc(C3CCC(CN4CCC(c5ccc6c(c5)-n5c(nc(=O)c7ccccc75)C65CCCCC5)CC4)CC3)nn2)C(C)(C)C)cc1 (stereo partly shown) [Compound A170]    < 50%

Note: attention shifts to another entry.
IN: # get_value(readout='Dmax', item= Cc1ncoc1-c1ccc([C@H](CN2CCOCC2)NC(=O)[C@@H]2C[C@@H](O)CN2C(=O)[C@@H](n2cc([C@H]3CC[C@H](CN4CCC(c5ccc6c(c5)-n5c(nc(=O)c7c(Cl)cccc75)C65CCCCC5)CC4)CC3)nn2)C(C)(C)C)cc1 [Compound A165] )
OUT: > 90%

###

- target.or.system: SMARCA4 (Homo sapiens)
- Sequence (P51532 whole entry): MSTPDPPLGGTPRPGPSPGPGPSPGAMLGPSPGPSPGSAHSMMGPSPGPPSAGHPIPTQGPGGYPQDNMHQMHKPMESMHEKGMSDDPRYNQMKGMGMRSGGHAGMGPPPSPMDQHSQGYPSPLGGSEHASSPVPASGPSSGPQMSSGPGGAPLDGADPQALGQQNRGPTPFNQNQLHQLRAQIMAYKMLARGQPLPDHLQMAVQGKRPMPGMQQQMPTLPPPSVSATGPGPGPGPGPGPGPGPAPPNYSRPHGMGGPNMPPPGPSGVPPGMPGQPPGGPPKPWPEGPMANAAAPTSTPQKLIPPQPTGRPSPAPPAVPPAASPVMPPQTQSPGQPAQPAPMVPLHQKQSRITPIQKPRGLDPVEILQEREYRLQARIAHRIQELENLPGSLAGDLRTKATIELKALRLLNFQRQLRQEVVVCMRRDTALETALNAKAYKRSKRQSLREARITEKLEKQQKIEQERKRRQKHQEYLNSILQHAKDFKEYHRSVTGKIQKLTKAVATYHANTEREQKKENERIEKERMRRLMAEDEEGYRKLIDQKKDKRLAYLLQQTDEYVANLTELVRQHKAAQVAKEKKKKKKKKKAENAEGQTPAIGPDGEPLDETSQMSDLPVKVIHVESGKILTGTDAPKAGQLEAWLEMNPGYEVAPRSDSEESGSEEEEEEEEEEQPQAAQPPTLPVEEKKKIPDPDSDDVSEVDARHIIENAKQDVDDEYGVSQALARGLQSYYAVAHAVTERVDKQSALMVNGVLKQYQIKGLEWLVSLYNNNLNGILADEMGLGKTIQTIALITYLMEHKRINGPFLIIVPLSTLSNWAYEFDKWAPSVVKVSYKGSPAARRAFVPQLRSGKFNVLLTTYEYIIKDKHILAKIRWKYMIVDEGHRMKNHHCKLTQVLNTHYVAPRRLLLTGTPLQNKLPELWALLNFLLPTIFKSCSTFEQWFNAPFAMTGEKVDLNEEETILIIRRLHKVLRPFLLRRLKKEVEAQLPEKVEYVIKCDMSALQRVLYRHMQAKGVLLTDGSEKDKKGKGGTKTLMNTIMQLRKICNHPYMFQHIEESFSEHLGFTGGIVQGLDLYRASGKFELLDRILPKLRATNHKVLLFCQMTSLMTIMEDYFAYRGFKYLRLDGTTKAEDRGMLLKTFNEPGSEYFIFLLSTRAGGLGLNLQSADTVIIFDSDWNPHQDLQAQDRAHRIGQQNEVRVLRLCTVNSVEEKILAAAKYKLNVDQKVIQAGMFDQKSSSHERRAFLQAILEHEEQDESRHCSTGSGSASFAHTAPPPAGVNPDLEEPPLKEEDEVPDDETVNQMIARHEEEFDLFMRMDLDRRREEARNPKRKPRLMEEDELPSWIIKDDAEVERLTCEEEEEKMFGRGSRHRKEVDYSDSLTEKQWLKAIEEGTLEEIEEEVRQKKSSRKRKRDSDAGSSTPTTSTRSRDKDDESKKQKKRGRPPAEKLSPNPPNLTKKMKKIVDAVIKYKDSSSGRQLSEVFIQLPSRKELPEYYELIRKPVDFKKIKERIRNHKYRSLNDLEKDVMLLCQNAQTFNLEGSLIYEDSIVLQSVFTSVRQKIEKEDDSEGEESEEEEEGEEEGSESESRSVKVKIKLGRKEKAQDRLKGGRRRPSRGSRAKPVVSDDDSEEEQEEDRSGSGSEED
- protocol.notes: HiBit assay in engineered HT1080 CRISPR knock-in cell, 6 hrs (B series), SMARCA4
- Assay type: cell-based
- settings: HT1080 CRISPR knock-in cells, 6 hrs incubation; read-out: SMARC A4 HT1080 HiBit DC50
value.type: DC50

Cc1ncsc1-c1ccc([C@H](C)NC(=O)[C@@H]2C[C@@H](O)CN2C(=O)[C@@H](c2cc(OCC3(CN4CCC(c5ccc6c(c5)-n5c(nc(=O)c7c(Cl)cccc75)C6(C)C)CC4)CC3)no2)C(C)C)cc1 [Compound B91]    < 100 nM
Cc1ncsc1-c1ccc([C@H](C)NC(=O)[C@@H]2C[C@@H](O)CN2C(=O)[C@@H](NC(=O)c2ccc(CN3CCC(c4ccc5c(c4)C(C)(C)c4nc(=O)c6c(Cl)cccc6n4-5)CC3)s2)C(C)(C)C)cc1 [Compound B20]    < 100 nM
Cc1ncsc1-c1ccc([C@H](C)NC(=O)[C@@H]2C[C@@H](O)CN2C(=O)[C@@H](NC(=O)C2CC(N3CCC(c4ccc5c(c4)C(C)(C)c4nc(=O)c6c(Cl)cccc6n4-5)CC3)C2)C(C)(C)C)cc1 (stereo partly shown) [Compound B14]    100 to 500 nM

Note: attention shifts to another entry.
IN: Request - read-out DC50 | tested on SMARCA4 (Homo sapiens) | molecule Cc1ncsc1-c1ccc([C@H](C)NC(=O)[C@@H]2C[C@@H](O)CN2C(=O)[C@@H](NC(=O)CN2CCC(c3ccc4c(c3)C(C)(C)c3nc(=O)c5c(Br)cccc5n3-4)CC2)C(C)(C)C)cc1 [Compound B5]
OUT: < 100 nM

###

- target.or.system: SMARCA2 (Homo sapiens)
- protocol.notes: HiBiT assay for protein degradation, Hela SMARCA2-HiBiT cells (A series);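 note: 24 h compound treatment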
- Format: cell-based
- Design: Hela cells were genetically modified via CRISPR/Cas9 to fuse HiBiT to the carboxy terminus of SMARCA2; host or cells: HeLa (CRISPR/Cas9 HiBiT knock-in)
- settings: Hela SMARCA2-HiBiT cells, 24 hours treatment; read-out: SMARC A2 Hela HiBit Dmax (%)
- Method: Hela cells were genetically modified via CRISPR/Cas9 to fuse HiBiT to the carboxy terminus of SMARCA2 (Promega CS302365) or SMARCA4 (Promega CS3023225). Cells were cultured in DMEM containing 10% FBS and 1% (Vol:Vol) penicillin-streptomycin. […] At the end of experiment, levels of SMARCA2 or SMARCA4 expression were assessed with Nano-Glo® HiBiT Lytic Detection Assay (Promega N3050). IC50 was obtained using the GraphPad Prism data analysis software.
Would you mind telling me the reported Dmax of each entry?

Answered examples (6):
Cc1ncsc1-c1ccc([C@H](CN2CCN(C)CC2)NC(=O)[C@@H]2C[C@@H](O)CN2C(=O)[C@@H](n2cc([C@H]3CC[C@H](CN4CCC(c5ccc6c(c5)-n5c(nc(=O)c7c(Cl)cccc75)C65CCCCC5)CC4)CC3)nn2)C(C)(C)C)cc1 [Compound A85]    > 90%
Cc1ncsc1-c1ccc([C@H](CN2CCOCC2)NC(=O)[C@@H]2C[C@@H](O)CN2C(=O)[C@H](C2CCCCC2)n2cc([C@H]3CC[C@H](CN4CCC[C@H](c5ccc6c(c5)-n5c(nc(=O)c7c(Cl)cccc75)C65CCCCC5)C4)CC3)nn2)cc1 [Compound A131]    70 to 90%
Cc1ncsc1-c1ccc([C@H](C)NC(=O)[C@@H]2C[C@@H](O)CN2C(=O)[C@H](C2CCCCC2)n2cc([C@H]3CC[C@H](CN4CCC(c5ccc6c(c5)-n5c(nc(=O)c7c(Br)cccc75)C65CCCCC5)CC4)CC3)nn2)cc1 [Compound A119]    > 90%
Cc1ncsc1-c1ccc([C@H](CN2CC3(COC3)C2)NC(=O)[C@@H]2C[C@@H](O)CN2C(=O)[C@@H](n2cc([C@H]3CC[C@H](CN4CCC(c5ccc6c(c5)-n5c(nc(=O)c7c(Cl)cccc75)C6(C)C)CC4)CC3)nn2)C(C)(C)C)cc1 [Compound A98]    > 90%
Cc1ncsc1-c1ccc([C@H](CN2CCOCC2)NC(=O)[C@@H]2C[C@@H](O)CN2C(=O)[C@@H](n2cc([C@H]3CC[C@H](CN4CCC(c5ccc6c(c5)-n5c(nc(=O)c7c(Br)cccc75)C65CCCCC5)CC4)CC3)nn2)C(C)(C)C)cc1 [Compound A69]    > 90%
CC(C)(C)[C@H](NC(=O)C1(F)CC1)C(=O)N1C[C@H](O)C[C@H]1C(=O)N[C@@H](CCCCCN1CCC(c2ccc3c(c2)C2(CCCCC2)c2nc(=O)c4c(Br)cccc4n2-3)CC1)c1ccc(Cl)cc1 [Compound A25]    < 50%

For every item below, please supply its Dmax.
1. Cc1ncsc1-c1ccc([C@H](C)NC(=O)[C@@H]2C[C@@H](O)CN2C(=O)[C@H](C2CCN(C(=O)CN3CCC(c4ccc5c(c4)-n4c(nc(=O)c6c(Cl)cccc64)C54CCCCC4)CC3)CC2)n2cc(C3CC3)nn2)cc1 [Compound A105]
2. Cc1ncsc1-c1ccc([C@@H](NC(=O)[C@@H]2C[C@@H](O)CN2C(=O)[C@@H](n2cc(C3CC3)nn2)C(C)(C)C)C(=O)N2CCC3(CCC(CN4CCC(c5ccc6c(c5)-n5c(nc(=O)c7c(Br)cccc75)C65CCCCC5)CC4)CC3)CC2)cc1 [Compound A137]

OUT:
1. 50 to 69%
2. > 90%
